# System Name: SARS-CoV-2 M^pro (Severe acute respiratory syndrome coronavirus 2 (2019-nCoV) (SARS-CoV-2), UniProt P0DTD1)
# Test Summary: biochemical
# Condition Summary: SARS-COV-2 main protease enzymatic inhibition (separated diastereomers, printed as EC50)
Experimental Endpoint: pEC50
The scale used: pEC50 is minus the common logarithm of the concentration in molar units.

C[C@H](NC(=O)C(c1cccnc1)N(C(=O)c1ccco1)c1ccc(-c2ccccc2)cc1)c1ccccc1 (single isomer, unassigned) [Jun8-76-3B]	5.87

Let's switch to this molecule now.
Input: # lookup: pEC50 of C[C@H](NC(=O)C(c1cccnc1)N(C(=O)c1ccco1)c1ccc(-c2ccccc2)cc1)c1ccccc1 (single isomer, unassigned) [Compound 23R]
Output: 6.82
